Assay: Cellular toxicity assay in CEM cells
Type: cell-based, human
Conditions: human, CEM lymphoblastoid cells, read-out: Cytotoxicity, CC50
QUANTITY: CC50

[[record]]
compound = "CC(C)OC(=O)[C@H](C)NP(=O)(OC[C@H]1O[C@@H](n2ccc(=O)[nH]c2=O)C(F)(Cl)[C@H]1O)Oc1ccccc1 (stereo partly shown) [Compound 12]"
quantity = "CC50"
assay_value = "> 100 µM"


###

Tested on: Primary human bone marrow mononuclear cells
Test: Bone Marrow Colony Forming Cell Assay (BFU-E)
Assay type: cell-based
Settings: Donor 1
QUANTITY: IC50 (nM)

[[record]]
molecule = "Cc1cn([C@H]2C[C@H](N=[N+]=[N-])[C@@H](CO)O2)c(=O)[nH]c1=O [AZT, reference compound]"
quantity = "IC50"
assay_value = 300


###

Experiment: Cytotoxicity in HCV replicon assay (ΔCt rRNA)
Format: cell-based
Settings: human, Huh-7 Clone B cells containing HCV GT 1b replicon RNA; HCV GT 1b replicon Huh-7 cells
QUANTITY: CC50 at 5 days

[[record]]
compound = "CC(C)OC(=O)[C@H](C)NP(=O)(OC[C@H]1O[C@@H](n2ccc(=O)[nH]c2=O)C(F)(Cl)[C@H]1O)Oc1ccccc1 (stereo partly shown)"
assay_value = "> 10 µM"


###

Assay: Cellular toxicity assay in human PBM cells
Type: cell-based
Conditions: human, human PBM cells; read-out: Cytotoxicity, CC50
QUANTITY: CC50

[[record]]
compound = "CC(C)OC(=O)[C@H](C)NP(=O)(OC[C@H]1O[C@@H](n2ccc(=O)[nH]c2=O)C(F)(Cl)[C@H]1O)Oc1ccccc1 (stereo partly shown) [Compound 12]"
assay_value = "> 100 µM"


###

Tested on: CEM (human lymphoblastoid)
Test: Cellular toxicity assay in CEM cells
Assay type: cell-based
Settings: read-out: Cytotoxicity, CC50
QUANTITY: CC50

[[record]]
molecule = "O=c1ccn(C2OC(CO)C(O)C2(F)Cl)c(=O)[nH]1 (stereo not shown)"
quantity = "CC50"
assay_value = "> 100 µM"


###

Test system: Human PBM
Experiment: Cellular toxicity assay in human PBM cells
Assay type: cell-based
Settings: Human PBM cells; read-out: Cytotoxicity, CC50
QUANTITY: CC50

[[record]]
compound = "O=c1ccn(C2OC(CO)C(O)C2(F)Cl)c(=O)[nH]1 (stereo not shown)"
quantity = "CC50"
assay_value = "> 100 µM"


###

Molecular target: Human DNA Polymerase Pol Gamma (Homo sapiens)
Sequence (P54098 26-1239 limits assumed): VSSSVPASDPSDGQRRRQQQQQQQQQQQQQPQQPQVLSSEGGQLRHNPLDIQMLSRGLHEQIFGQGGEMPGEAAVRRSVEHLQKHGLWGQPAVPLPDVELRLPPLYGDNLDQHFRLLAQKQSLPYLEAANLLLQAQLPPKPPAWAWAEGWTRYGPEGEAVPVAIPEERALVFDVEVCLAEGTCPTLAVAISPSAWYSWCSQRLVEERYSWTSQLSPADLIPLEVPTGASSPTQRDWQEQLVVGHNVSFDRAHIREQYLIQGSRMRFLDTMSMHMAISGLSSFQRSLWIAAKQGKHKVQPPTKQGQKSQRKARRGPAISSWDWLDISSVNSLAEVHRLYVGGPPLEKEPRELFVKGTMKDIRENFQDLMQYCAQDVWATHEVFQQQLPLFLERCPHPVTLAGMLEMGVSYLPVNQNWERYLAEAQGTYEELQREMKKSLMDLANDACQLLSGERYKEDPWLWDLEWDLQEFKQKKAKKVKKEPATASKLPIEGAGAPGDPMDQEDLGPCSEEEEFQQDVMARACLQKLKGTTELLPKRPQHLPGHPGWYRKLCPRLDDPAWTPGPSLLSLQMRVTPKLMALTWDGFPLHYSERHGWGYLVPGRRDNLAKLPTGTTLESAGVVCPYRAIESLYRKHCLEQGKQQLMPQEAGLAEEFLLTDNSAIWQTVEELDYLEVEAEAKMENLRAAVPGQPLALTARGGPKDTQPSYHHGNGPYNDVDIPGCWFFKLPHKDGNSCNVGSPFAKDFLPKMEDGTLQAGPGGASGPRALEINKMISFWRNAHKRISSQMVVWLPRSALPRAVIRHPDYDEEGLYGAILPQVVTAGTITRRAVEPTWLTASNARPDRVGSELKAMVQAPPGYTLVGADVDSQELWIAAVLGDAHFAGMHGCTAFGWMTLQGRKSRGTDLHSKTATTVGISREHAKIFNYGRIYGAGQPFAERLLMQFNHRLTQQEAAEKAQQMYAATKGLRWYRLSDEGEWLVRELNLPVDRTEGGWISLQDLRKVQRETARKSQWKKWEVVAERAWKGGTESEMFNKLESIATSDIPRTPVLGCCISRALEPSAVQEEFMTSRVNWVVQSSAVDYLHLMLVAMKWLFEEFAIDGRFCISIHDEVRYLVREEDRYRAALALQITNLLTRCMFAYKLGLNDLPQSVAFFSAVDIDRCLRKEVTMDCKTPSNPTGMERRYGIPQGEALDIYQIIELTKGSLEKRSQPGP
Sequence (Q9UHN1 26-485 partner limits assumed): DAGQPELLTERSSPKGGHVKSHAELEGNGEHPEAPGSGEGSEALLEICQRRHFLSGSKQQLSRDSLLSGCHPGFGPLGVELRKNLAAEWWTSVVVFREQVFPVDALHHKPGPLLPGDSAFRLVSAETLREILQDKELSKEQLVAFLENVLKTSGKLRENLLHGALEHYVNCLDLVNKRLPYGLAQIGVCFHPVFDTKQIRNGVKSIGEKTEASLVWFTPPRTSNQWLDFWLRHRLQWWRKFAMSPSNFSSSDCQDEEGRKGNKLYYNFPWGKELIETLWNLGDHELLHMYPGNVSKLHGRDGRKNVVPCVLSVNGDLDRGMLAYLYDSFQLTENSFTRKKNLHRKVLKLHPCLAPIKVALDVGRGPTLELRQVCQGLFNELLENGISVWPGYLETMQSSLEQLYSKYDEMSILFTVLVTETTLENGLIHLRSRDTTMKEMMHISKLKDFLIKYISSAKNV
QUANTITY: IC50 (µM)

[[record]]
compound_structure_string = "Cc1cn([C@H]2CC[C@@H](COP(=O)(O)OP(=O)(O)OP(=O)(O)O)O2)c(=O)[nH]c1=O"
assay_value = 43


Attribution: patent US20170037078A1
